# System: dengue virus type 2
# assay_protocol: Activity of dengue virus 2 recombinant NS3 protease expressed in Escherichia coli C41(DE3) by fluorogenic assay
Non-standard residues stand in square brackets, D forms with d. Residues, ends and D or L forms follow the SMILES beside them. Tyr(3-NO2) = N[C@@H](Cc1ccc(O)c([N+](=O)[O-])c1)C(=O)O; 2Abz = Nc1ccccc1C(=O)O
test_readout: Km (µM)
A number alone suffices; assume µM.

Solved cases (3 shown):
INSERT INTO results (molecule, unit_spec, measured_value) VALUES
  ('C[C@@H](O)[C@H](NC(=O)[C@H](CO)NC(=O)c1ccccc1N)C(=O)N1CCC[C@H]1C(=O)N[C@@H](Cc1cnc[nH]1)C(=O)N[C@@H](Cc1ccc(O)c([N+](=O)[O-])c1)C(N)=O (H-[2Abz]STPH[Tyr(3-NO2)]-NH2)', 'µM', 17.2),
  ('NC(=O)C[C@H](NC(=O)CNC(=O)[C@H](Cc1cnc[nH]1)NC(=O)[C@H](Cc1cnc[nH]1)NC(=O)c1ccccc1N)C(=O)N[C@@H](Cc1ccc(O)c([N+](=O)[O-])c1)C(N)=O (H-[2Abz]HHGN[Tyr(3-NO2)]-NH2)', 'µM', 4.34),
  ('NC(=O)[C@H](Cc1ccc(O)c([N+](=O)[O-])c1)NC(=O)[C@H](Cc1cnc[nH]1)NC(=O)[C@@H]1CCCN1C(=O)[C@H](CO)NC(=O)[C@H](Cc1cnc[nH]1)NC(=O)c1ccccc1N (H-[2Abz]HSPH[Tyr(3-NO2)]-NH2)', 'µM', 5.77);

Turning to the following molecule.
Bench note: what Km did NC(=O)[C@H](Cc1ccc(O)c([N+](=O)[O-])c1)NC(=O)[C@H](CC(=O)O)NC(=O)[C@H](CO)NC(=O)[C@H](Cc1c[nH]c2ccccc12)NC(=O)[C@H](Cc1cnc[nH]1)NC(=O)c1ccccc1N (H-[2Abz]HWSD[Tyr(3-NO2)]-NH2) show?
14.9
